- setup-conditions: in water, 289.85 K

{"columns": ["molecule-smiles", "solubility (mole fraction)"],
 "data": [
  ["NCCS(=O)(=O)O", 0.0128]
]}

###

- setup-conditions: in water, 288.75 K

{"columns": ["molecule-smiles", "solubility (mole fraction)"],
 "data": [
  ["NCCS(=O)(=O)O", 0.0119]
]}

###

- setup-conditions: in water, 353.55 K

{"columns": ["molecule-smiles", "solubility (mole fraction)"],
 "data": [
  ["NCCS(=O)(=O)O", 0.0646]
]}

###

- setup-conditions: in water, 345.15 K
measured-quantity: solubility (mole fraction)

{"columns": ["molecule-smiles", "measured-quantity", "numeric-result"],
 "data": [
  ["NCCS(=O)(=O)O", "solubility (mole fraction)", 0.0526]
]}
